These entries and their values trace back to patent US20250320312A1.

- tested-target: T1, Peptide 4: Biotin-AGGGGSGGGGSGGGGSAAA-Tyr-acid (N-terminal biotin; C-terminal acid; no PC)
- T1 construct: control peptide without PC
- T1 peptide: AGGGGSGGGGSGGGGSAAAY
- assay: scFv ELISA
property-label: OD450 (OD450)
Just the number in OD450, nothing appended.

Example binders with recorded OD450:
binder	property-label	endpoint-result
PcOxP_DB04_A07 (scFv, V domains shown, scFv in periplasmic extract) VH: EVQLLESGGGLVQPGGSLRLSCAASGFTQSDFYMEWVRQAPGKGLEWVAASRNKANDYTTEYADSVKGRFTISRDNSKNTLYLQMNSLRAEDTAVYYCARDYYGSSYWYFDVWGQGTLVTVSS VL: DIQMTQSPSSLSASVGDRVTITCTASESLYSSKHKVHYLAWYQQKPGKAPKLLIYGISNRYIGVPSRFSGSGSGTDFTLTISSLQPEDFATYYCAQFYSYPLTFGGGTKVEIK	OD450	0.05
PcOxP_DB02_E11 (scFv, V domains shown, scFv in periplasmic extract) VH: EVQLLESGGGLVQPGGSLRLSCAASGFTFSDQYMEWVRQAPGKGLEWVAASRNKANDYTVEYADSVKGRFTISRDNSKNTLYLQMNSLRAEDTAVYYCARDYYGSSYWYFDVWGQGTLVTVSS VL: DIVMTQSPDSLAVSLGERATINCKSSESLLYSKNNKNYLAWYQQKPGQPPKLLIYGASNRYSGVPDRFSGSGSGTDFTLTISSLQAEDVAVYYCAQFYSYPLTFGGGTKVEIK	OD450	0.04
PcOxP_DB01_D11 (scFv, V domains shown, scFv in periplasmic extract) VH: EVQLLESGGGLVQPGGSLRLSCAASGFTFSSYYMEWVRQAPGKGLEWVAASRNKANDYTTEYADSVKGRFTISRDNSKNTLYLQMNSLRAEDTAVYYCARDYYGSSYWYNDVWGQGTLVTVSS VL: DIVMTQSPDSLAVSLGERATINCTASESLYSSKWKVHYLAWYQQKPGQPPKLLIYGASNRYIGVPDRFSGSGSGTDFTLTISSLQAEDVAVYYCAQFYSYPLTFGGGTKVEIK	OD450	0.06
PcOxP_DB01_A03 (scFv, V domains shown, scFv in periplasmic extract) VH: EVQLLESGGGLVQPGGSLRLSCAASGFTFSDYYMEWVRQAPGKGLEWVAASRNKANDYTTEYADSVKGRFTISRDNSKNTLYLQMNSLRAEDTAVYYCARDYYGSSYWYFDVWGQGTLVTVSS VL: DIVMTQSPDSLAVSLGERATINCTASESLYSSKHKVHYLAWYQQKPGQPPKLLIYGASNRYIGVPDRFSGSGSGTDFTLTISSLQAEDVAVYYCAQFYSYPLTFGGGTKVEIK	OD450	0.05
PcOxP_DB02_C04 (scFv, V domains shown, scFv in periplasmic extract) VH: EVQLLESGGGLVQPGGSLRLSCAASGQTFSDFYMEWVRQAPGKGLEWVAASRNKANGYTTEYTDSVKGRFTISRDNSKNTLYLQMNSLRAEDTAVYYCARDYYGSSYWYFDVWGQGTLVTVSS VL: DIVMTQSPDSLAVSLGERATINCTASESLYSSKHKVHYLAWYQQKPGQPPKLLIYGANNRYIGVPDRFSGSGSGTDFTLTISSLQAEDVAVYYCAQFYSYPLTFGGGTKVEIK	OD450	0.05

Tell me OD450 reported for PcOxP_DB01_E01 (scFv, V domains shown, scFv in periplasmic extract) VH: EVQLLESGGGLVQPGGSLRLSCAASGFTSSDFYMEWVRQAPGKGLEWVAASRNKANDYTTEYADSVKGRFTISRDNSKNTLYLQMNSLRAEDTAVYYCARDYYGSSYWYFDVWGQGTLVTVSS VL: DIVMTQSPDSLAVSLGERATINCTASESLYSSKHKVHYLAWYQQKPGQPPKLLIYGASNRVIGVPDRFSGSGSGTDFTLTISSLQAEDVAVYYCANFYSYPLTFGGGTKVEIK
0.05

Given the binder PcOxP_DB04_F11 (scFv, V domains shown, scFv in periplasmic extract) VH: EVQLLESGGGLVQPGGSLRLSCAASGFTGSDFYMEWVRQAPGKGLEWVAASRGKGNSYTTEYADSVKGRFTISRDNSKNTLYLQMNSLRAEDTAVYYCARDYYGSSTWYFDVWGQGTLVTVSS VL: DIQMTQSPSSLSASVGDRVTITCTASESLYSSKHKVHYLAWYQQKPGKAPKLLIYGASNRYAGVPSRFSGSGSGTDFTLTISSLQPEDFATYYCGQFYSYPLTFGGGTKVEIK , write its reported OD450.
0.07

Fill in reported OD450 for this entry: PcOxP_DB01_G10 (scFv, V domains shown, scFv in periplasmic extract) VH: EVQLLESGGGLVQPGGSLRLSCAASGFTFSDFYMEWVRQAPGKGLEWVAASRNKNNDYTTEYADSVKGRFTISRDNSKNTLYLQMNSLRAEDTAVYYCARDYYGSSYWYFDVWGQGTLVTVSS VL: DIVMTQSPDSLAVSLGERATINCKASQSLYSSKHKKHYLAWYQQKPGQPPKLLIYGASNRYPGVPDRFSGSGSGTDFTLTISSLQAEDVAVYYCAQFYRYPLTFGGGTKVEIK
0.05

Answer with reported OD450 of PcOxP_DB01_H06 (scFv, V domains shown, scFv in periplasmic extract) VH: EVQLLESGGGLVQPGGSLRLSCAASGFTFSDFYMEWVRQAPGKGLEWVAASRNKGNSYTTAYADSVKGRFTISRDNSKNTLYLQMNSLRAEDTAVYYCARDYYGSSYWYFDVWGQGTLVTVSS VL: DIVMTQSPDSLAVSLGERATINCTASESLYSSKHKVHYLAWYQQKPGQPPKLLIYGASNRYDGVPDRFSGSGSGTDFTLTISSLQAEDVAVYYCANFYSYPLTFGGGTKVEIK
0.05

Look up and state reported OD450 for PcOxP_DB01_H02 (scFv, V domains shown, scFv in periplasmic extract) VH: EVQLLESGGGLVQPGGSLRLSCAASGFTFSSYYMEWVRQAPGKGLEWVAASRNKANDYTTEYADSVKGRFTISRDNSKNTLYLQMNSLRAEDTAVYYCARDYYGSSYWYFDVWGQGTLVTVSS VL: DIVMTQSPDSLAVSLGERATINCTASSSLYSSKHKVHYLAWYQQKPGQPPKLLIYGASNRYIGVPDRFSGSGSGTDFTLTISSLQAEDVAVYYCAQFYSYPLTFGGGTKVEIK
0.07
